Test system: OCI-AML2;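 further: after 48 h exposure read by CellTiter-Glo luminescence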
assay-details: cell viability relative to vehicle control; higher = less cytotoxic
assay-conditions: 10 µM; SRSF2 genotype: P95H/wt
For each entry below, report its cell viability value.
One number for each entry, in %.

Before answering, review these 4 worked examples.
* CNC(=O)c1ccc(C)c(-n2c(C)cc(OCc3ccc(F)cc3F)c(Br)c2=O)c1 | 72.8
* COc1cc(NS(=O)(=O)c2ccc(N)cc2)nc(OC)n1 [Sulphadimethoxine] | 90.4
* Cc1cccc(C)c1N(CC(=O)Nc1ccc(-c2ncon2)cc1)C(=O)C1CCS(=O)(=O)CC1 [Amenamevir] | 88.5
* O=NO [Sodium Nitrite] | 97.8

Record cell viability for all entries; do not skip any.
1. NC(=O)c1cccc(-c2cccc(OC(=O)NC3CCCCC3)c2)c1
2. CCCCC[C@H](O)/C=C/[C@H]1[C@H](O)CC(=O)[C@@H]1C/C=C\CCCC(=O)O [Dinoprostone]
3. O=C(/C=C/c1cccc(S(=O)(=O)Nc2ccccc2)c1)NO [Belinostat (PXD101)]

[88.6, 74.5, 2.66]

----------
Test system: OCI-AML2;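 further: after 48 h exposure read by CellTiter-Glo luminescence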
assay-details: cell viability relative to vehicle control; higher = less cytotoxic
assay-conditions: 10 µM; SRSF2 genotype: P95H/wt
For each entry below, report its cell viability value.
Give bare numbers, in %.

Before answering, review these 5 worked examples.
* CC(=O)OC1CC2(C)C(CC(O)C3C4(C)CCC(O)C(C)C4CCC32C)C1=C(CCC=C(C)C)C(=O)O (stereo unspecified) | 94.2
* CC(C)=CCC[C@](C)(O[C@@H]1O[C@H](CO)[C@@H](O)[C@H](O)[C@H]1O)[C@H]1CC[C@]2(C)[C@@H]1[C@H](O)C[C@@H]1[C@@]3(C)CC[C@H](O)C(C)(C)[C@@H]3[C@@H](O[C@@H]3O[C@H](CO)[C@@H](O)[C@H](O)[C@H]3O[C@@H]3OC[C@@H](O)[C@H](O)[C@H]3O)C[C@]12C [Notoginsenoside R1] | 94.6
* O=C(NCCCn1ccnc1)c1cc(-c2ccco2)on1 | 77.2
* Nc1nnc(-c2cccc(Cl)c2Cl)c(N)n1 | 101
* COc1ccc(C(=O)C(=O)c2ccc(OC)cc2)cc1 | 94.5

Record cell viability for all entries; do not skip any.
1. O=S(=O)(N=Cc1c(O)ccc2ccccc12)c1cccs1
2. O=C(O)CCn1c2c(c3ccccc31)C[C@H](NS(=O)(=O)c1ccc(F)cc1)CC2
3. C[C@H]1Oc2cc(cnc2N)-c2c(nn(C)c2C#N)CN(C)C(=O)c2ccc(F)cc21
4. NC(=O)c1cn(Cc2c(F)cccc2F)nn1 [Rufinamide (Banzel)]
5. CN(C)c1ccc(-c2nc3ncc(Cl)c(N4CCN(CC(=O)Nc5nccs5)CC4)c3[nH]2)cc1
6. C[C@@H]1O[C@@H](OC[C@H]2O[C@@H](Oc3c(-c4ccc(OCCO)c(OCCO)c4)oc4cc(OCCO)cc(O)c4c3=O)[C@H](O)[C@@H](O)[C@@H]2O)[C@H](O)[C@H](O)[C@H]1O
7. O=C(O)c1cccnc1Nc1cccc(C(F)(F)F)c1
8. CNC(=O)c1cc(Oc2ccc3nc(N[C@@H]4CCCC[C@H]4O)sc3c2)ccn1

101
101
94.9
113
92.4
91.5
101
90

----------
For each entry below, report its cell viability value.
System: OCI-AML2;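 further: after 48 h exposure read by CellTiter-Glo luminescence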
assay-details: cell viability relative to vehicle control; higher = less cytotoxic
assay-conditions: 10 µM; SRSF2 genotype: wt/wt
One number for each entry, in %.

Before answering, review these 2 worked examples.
* CC1=C(/C=C/C(C)=C/C=C/C(C)=C/C=C/C=C(C)/C=C/C=C(C)/C=C/C2=C(C)CCCC2(C)C)C(C)(C)CCC1 | 105
* CC(=O)Nc1cccc2c1c(Sc1ccc(Cl)cc1)c(C)n2CC(=O)O | 108

Record cell viability for all entries; do not skip any.
1. CN1CCC(=C2c3ccccc3CCn3c(C=O)cnc32)CC1
2. COc1cc2c(cc1OC)[C@@H]1Cc3ccc(OC)c(OC)c3CN1CC2 [Rotundine]
3. COc1ccc2cc1Oc1ccc(cc1)C[C@H]1c3c(cc4c(c3Oc3cc5c(cc3OC)CCN(C)[C@@H]5C2)OCO4)CCN1C
4. CCCc1cc(-c2nc(-c3ccc(C)cc3)cs2)ccn1
5. COC(=O)c1ccc(O)c(O)c1 [Methyl protocatechuate]

97.4
90.4
8.53
35.4
97.9

Give the measured cell viability for O=C(N[C@@H](c1ccccc1)[C@@H](O)C(=O)O)c1ccccc1
104
